# EXPERIMENTAL TARGET: CLR/RAMP1 receptor (UniProt Q16602 23-461; O60894 27-148, limits assumed)
# Sequence (Q16602 23-461 limits assumed, chain 1 of 2): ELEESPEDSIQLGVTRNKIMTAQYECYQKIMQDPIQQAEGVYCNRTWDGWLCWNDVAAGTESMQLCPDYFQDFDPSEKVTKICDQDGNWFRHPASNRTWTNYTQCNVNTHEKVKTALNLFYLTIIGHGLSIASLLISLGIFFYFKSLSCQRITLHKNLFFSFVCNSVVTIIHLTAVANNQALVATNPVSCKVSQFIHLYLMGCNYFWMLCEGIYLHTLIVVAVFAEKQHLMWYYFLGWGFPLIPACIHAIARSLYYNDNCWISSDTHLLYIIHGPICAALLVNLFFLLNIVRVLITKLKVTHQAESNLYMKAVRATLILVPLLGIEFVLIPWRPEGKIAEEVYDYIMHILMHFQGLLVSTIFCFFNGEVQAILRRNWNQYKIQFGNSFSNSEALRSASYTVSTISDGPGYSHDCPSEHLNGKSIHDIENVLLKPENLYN
# Sequence (O60894 27-148 limits assumed, chain 2 of 2): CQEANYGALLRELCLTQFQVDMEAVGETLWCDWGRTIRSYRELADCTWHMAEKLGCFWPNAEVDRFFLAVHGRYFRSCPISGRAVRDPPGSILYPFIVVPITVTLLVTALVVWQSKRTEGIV
# ASSAY METHOD TEXT: cell-based or functional assay
Non-standard residues stand in square brackets, D forms with d. No end group written: not given here. *: point of attachment. Palmitoyl = CCCCCCCCCCCCCCCC(=O)*; AEEEA = NCCOCCOCCOCC(=O)O
With a cut-off of 0.4 nM, any EC50 (nM), CLR/RAMP1 cAMP assay strictly below it is called Y; any EC50 (nM), CLR/RAMP1 cAMP assay meeting it or above is called N.

Example cases with answers are listed next.
INSERT INTO results (binder, qualitative_label) VALUES
  ('[AEEEA]K(Palmitoyl)CRFGTCTVQKLAHQIYQFTDKDKDNSAPVDPSSPHSY-NH2 (ends and bridges not checked) [SEQ ID NO: 43]', 'N'),
  ('Ac-K(Palmitoyl)GCRFGTCTVQKLAHQIYQFTDKDKDNVAPRSKSSPHSY-NH2 (ends and bridges not checked) [SEQ ID NO: 65]', 'N'),
  ('Ac-KGCRFGTCTVQKLAHQIYQFTDKDKDNVAPVDPSSPHSY-NH2 (ends and bridges not checked) [SEQ ID NO: 60]', 'N');

Asked: Here's an entry: Ac-K(Palmitoyl)GCRFGTCTVQKLAHQIYQFTPAGRQDSAPVDPSSPHSY-NH2 (ends and bridges not checked) [SEQ ID NO: 33] . Is its EC50 (nM), CLR/RAMP1 cAMP assay below 0.4 nM?
Given back: Y

Asked: Here's an entry: Ac-KGCRFGTCTVQKLAHQIYQFTDKDSAPVDPSSPHSY-NH2 (ends and bridges not checked) [SEQ ID NO: 93] . Is its EC50 (nM), CLR/RAMP1 cAMP assay below 0.4 nM?
Given back: N

Asked: Here's an entry: miniPEG-K(Palmitoyl)GCRFGTCTVQKLAHQIYQFTDKDSAPVDPSSPHSY-NH2 (ends and bridges not checked) [SEQ ID NO: 48] . Is its EC50 (nM), CLR/RAMP1 cAMP assay below 0.4 nM?
Given back: Y

Asked: Here's an entry: Palmitoyl-GCRFGTCTVQKLAHQIYQFTDKDKDNSAPVDPSSPHSY-NH2 (ends and bridges not checked) [SEQ ID NO: 45] . Is its EC50 (nM), CLR/RAMP1 cAMP assay below 0.4 nM?
Given back: Y
